- experimental-target: endogenous MLKL in U937 (Homo sapiens (Human))
- Sequence (Q8NB16 whole entry): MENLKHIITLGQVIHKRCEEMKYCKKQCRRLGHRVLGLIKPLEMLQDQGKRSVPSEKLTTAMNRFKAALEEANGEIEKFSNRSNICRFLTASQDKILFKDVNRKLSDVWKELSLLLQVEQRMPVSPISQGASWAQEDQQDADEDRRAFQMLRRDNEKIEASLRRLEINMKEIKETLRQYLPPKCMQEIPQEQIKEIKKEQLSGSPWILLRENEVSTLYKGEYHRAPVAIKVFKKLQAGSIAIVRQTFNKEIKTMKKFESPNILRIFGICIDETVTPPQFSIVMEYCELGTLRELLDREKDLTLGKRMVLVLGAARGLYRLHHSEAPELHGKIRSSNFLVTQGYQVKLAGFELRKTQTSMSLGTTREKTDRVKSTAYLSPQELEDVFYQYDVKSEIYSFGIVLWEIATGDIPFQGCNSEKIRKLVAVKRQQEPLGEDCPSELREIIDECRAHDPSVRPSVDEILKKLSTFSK
- test-name: Degradation assay: endogenous MLKL in U937 (western blot)
- assay-setup: U937, 24 h incubation, read-out: Degradation of endogenous MLKL in U937 (DC50 cell-based assay)
- Protocol: Degradation Assay: Screening Compounds Procedure to Evaluate the Activity of Compounds in Degrading Endogenous MLKL in Human and Mouse Cell […] Membranes were blocked with 5% skim milk in TBST. […] The signal was detected as described above. The band intensity was measured in the ImageLab Software (BIO-RAD) and the MLKL values adjusted for loading with GAPDH. The percentage of degradation was calculated by normalizing the compound treated values to the DMSO only control.
We begin with a simple list: items and their reported DC50.
measured-attribute: DC50

molecule	reading
C[C@H](Oc1cc(-c2nn(C)c3c(-c4cnn(C5CCN(CCCN6CCN(C(=O)COc7ccc8c(c7)C(=O)N(C7CCC(=O)NC7=O)C8=O)CC6)CC5)c4)cnc(N)c23)ccc1NS(=O)(=O)C(F)F)c1ccc(F)cc1 (some centres unmarked)	< 1000 nM
Cc1ncsc1-c1ccc(CNC(=O)[C@@H]2C[C@@H](O)CN2C(=O)[C@@H](NC(=O)COCCN2CCCC(n3cc(-c4cnc(N)c5c(-c6ccc(NS(=O)(=O)C(F)F)c(O[C@@H](C)c7ccc(F)cc7)c6)nn(C)c45)cn3)C2)C(C)(C)C)cc1 (some centres unmarked)	1000 to 10000 nM

----------
- Tested on: U937 human histiocytic leukemia cell line
- test-name: Cellular assay: inhibition of TSQ induced necroptosis, CellTitre-Glo viability
- assay-setup: Homo sapiens, U-937; U937 cells, 48 hours, TSQ cocktail, Table 26; read-out: Inhibition of TSQ-induced necroptosis (IC50 cell-based assay)
pIC50: −log10 of the molar value.
We begin with a simple list: items and their reported pIC50.

compound	pIC50
CCS(=O)(=O)Nc1ccc(-c2n[nH]c3c(-c4cnn(CCCCC(=O)N[C@H](C(=O)N5C[C@H](O)C[C@H]5C(=O)NCc5ccc(-c6scnc6C)cc5)C(C)(C)C)c4)cnc(N)c23)cc1OCc1ccc(F)cc1	< 5.00
Cc1ncsc1-c1ccc(CNC(=O)[C@@H]2C[C@@H](O)CN2C(=O)[C@@H](NC(=O)CCCCCCn2cc(-c3cnc(N)c4c(-c5ccc(NS(=O)(=O)C(F)F)cc5)nn(C)c34)cn2)C(C)(C)C)cc1	> 6.00
Cc1ncsc1-c1ccc(CNC(=O)[C@@H]2C[C@@H](O)CN2C(=O)[C@@H](NC(=O)COCCOCCn2cc(-c3cnc(N)c4c(-c5ccc(NS(=O)(=O)C(F)F)c(O[C@@H](C)c6ccc(F)cc6)c5)nn(C)c34)cn2)C(C)(C)C)cc1	> 6.00
Cc1ncsc1-c1ccc(CNC(=O)[C@@H]2C[C@@H](O)CN2C(=O)[C@@H](NC(=O)CCCCCCn2cc(-c3cnc(N)c4c(-c5ccc(NS(=O)(=O)C(F)F)c(O[C@@H](C)c6ccc(F)cc6)c5)nn(C)c34)cn2)C(C)(C)C)cc1	> 6.00
Cc1ncsc1-c1ccc(CNC(=O)[C@@H]2C[C@@H](O)CN2C(=O)[C@@H](NC(=O)CCN2CCC(n3cc(-c4cnc(N)c5c(-c6ccc(NS(=O)(=O)C(F)F)c(O[C@@H](C)c7ccc(F)cc7)c6)nn(C)c45)cn3)C2)C(C)(C)C)cc1 (stereo partly shown)	5.00 to 6.00
CCS(=O)(=O)Nc1ccc(-c2nn(C)c3c(-c4cnn(CCOCCOCC(=O)N[C@H](C(=O)N5C[C@H](O)C[C@H]5C(=O)NCc5ccc(-c6scnc6C)cc5)C(C)(C)C)c4)cnc(N)c23)cc1	5.00 to 6.00
Cc1ncsc1-c1ccc(CNC(=O)[C@@H]2C[C@@H](O)CN2C(=O)[C@@H](NC(=O)COCCOCCn2cc(-c3cnc(N)c4c(-c5ccc(NS(=O)(=O)C(F)F)cc5)nn(C)c34)cn2)C(C)(C)C)cc1	5.00 to 6.00
